Tested on: Pr. morganii A15153

| compound | unit-abbrev | limit-operator | MIC |
| --- | --- | --- | --- |
| CC(=O)Oc1ccc([C@@H](N)C(=O)N[C@@H]2C(=O)N3C(C(=O)O)=C(CSc4c[nH]nn4)CS[C@H]23)cc1 | µg/mL | = | 63 |
| N[C@@H](C(=O)N[C@@H]1C(=O)N2C(C(=O)O)=C(CSc3c[nH]nn3)CS[C@H]12)c1ccc(O)cc1 [Bl-S640, reference compound] | µg/mL | = | 63 |
| CC(=O)Oc1ccc([C@@H](N)C(=O)N[C@@H]2C(=O)N3C(C(=O)O)=C(C)CS[C@H]23)cc1 | µg/mL | > | 125 |
| CC1=C(C(=O)O)N2C(=O)[C@@H](NC(=O)[C@H](N)c3ccc(O)cc3)[C@H]2SC1 [BL-S 578-4, reference compound] | µg/mL | > | 125 |

----------
Measured MIC values are reported for all entries that follow.
Test system: S. aureus BX1633 A9606
Experiment: MIC, 2-fold broth dilution, S. aureus BX1633 A9606
Assay type: cell-based
Settings: Staphylococcus aureus, BX1633A9606, Nutrient Broth; 10-3
Protocol: Minimal inhibitory concentrations were determined by the 2-fold broth dilution method utilizing equimolar concentrations of each compound.
measured-parameter: MIC (µg/mL)

| compound | unit-abbrev | numeric-result |
| --- | --- | --- |
| CC(=O)Oc1ccc([C@@H](N)C(=O)N[C@@H]2C(=O)N3C(C(=O)O)=C(CSc4c[nH]nn4)CS[C@H]23)cc1 [RN 1396] | µg/mL | 0.6 |
| N[C@@H](C(=O)N[C@@H]1C(=O)N2C(C(=O)O)=C(CSc3c[nH]nn3)CS[C@H]12)c1ccc(O)cc1 [Bl-S640, reference compound] | µg/mL | 0.6 |
| CC(=O)Oc1ccc([C@@H](N)C(=O)N[C@@H]2C(=O)N3C(C(=O)O)=C(C)CS[C@H]23)cc1 [RN 1394] | µg/mL | 1 |
| CC1=C(C(=O)O)N2C(=O)[C@@H](NC(=O)[C@H](N)c3ccc(O)cc3)[C@H]2SC1 [BL-S 578-4, reference compound] | µg/mL | 2 |
